Source listed as patent US11807620B2.

target: cereblon (NanoLuc-CRBN) (Homo sapiens); construct: host or cells: HEK293T; test: NanoBRET CRBN Cellular Target Engagement Assay; format: binding; details: compound tested at 10 μM; HEK293T cells transfected with NanoLuc-CRBN; 2 hr incubation; lower = higher affinity; read-out: % tracer bound At the end of assay
quantity name: remaining activity at 10 µM (%)

[
  {
    "molecule": "Cc1nc2cccc(NCc3ccccc3F)c2c(=O)n1C1CCC(=O)NC1=O (centres unmarked)",
    "quantitative readout": 26.6
  },
  {
    "molecule": "COc1ccccc1CNc1cccc2nc(C)n(C3CCC(=O)NC3=O)c(=O)c12 (centres unmarked)",
    "quantitative readout": 47.4
  },
  {
    "molecule": "Cc1cccc(CNc2cccc3nc(C)n(C4CCC(=O)NC4=O)c(=O)c23)c1 (centres unmarked)",
    "quantitative readout": 22.9
  },
  {
    "molecule": "Cc1nc2cccc(NCc3ccc(F)cc3)c2c(=O)n1C1CCC(=O)NC1=O (centres unmarked)",
    "quantitative readout": 40.9
  },
  {
    "molecule": "COc1cc(CNc2cccc3nc(C)n(C4CCC(=O)NC4=O)c(=O)c23)cc(OC)c1 (centres unmarked)",
    "quantitative readout": 20.9
  },
  {
    "molecule": "COc1cccc(CNc2cccc3nc(C)n(C4CCC(=O)NC4=O)c(=O)c23)c1 (centres unmarked)",
    "quantitative readout": 27.3
  },
  {
    "molecule": "Cc1nc2cccc(NCc3ccc(C(F)(F)F)cc3)c2c(=O)n1C1CCC(=O)NC1=O (centres unmarked)",
    "quantitative readout": 23.9
  },
  {
    "molecule": "COc1ccc(OC)c(CNc2cccc3nnn(C4CCC(=O)NC4=O)c(=O)c23)c1 (centres unmarked)",
    "quantitative readout": 29.7
  }
]

* * *

Quick list: remaining activity at 10 µM per entry.
biological target: cereblon (NanoLuc-CRBN) (Homo sapiens, UniProt Q96SW2); construct: host or cells: HEK293T; experiment: NanoBRET CRBN Cellular Target Engagement Assay; type: binding; conditions: compound tested at 10 μM; HEK293T cells transfected with NanoLuc-CRBN; 2 hr incubation; lower = higher affinity; read-out: % tracer bound At the end of assay
Sequence (Q96SW2 whole entry): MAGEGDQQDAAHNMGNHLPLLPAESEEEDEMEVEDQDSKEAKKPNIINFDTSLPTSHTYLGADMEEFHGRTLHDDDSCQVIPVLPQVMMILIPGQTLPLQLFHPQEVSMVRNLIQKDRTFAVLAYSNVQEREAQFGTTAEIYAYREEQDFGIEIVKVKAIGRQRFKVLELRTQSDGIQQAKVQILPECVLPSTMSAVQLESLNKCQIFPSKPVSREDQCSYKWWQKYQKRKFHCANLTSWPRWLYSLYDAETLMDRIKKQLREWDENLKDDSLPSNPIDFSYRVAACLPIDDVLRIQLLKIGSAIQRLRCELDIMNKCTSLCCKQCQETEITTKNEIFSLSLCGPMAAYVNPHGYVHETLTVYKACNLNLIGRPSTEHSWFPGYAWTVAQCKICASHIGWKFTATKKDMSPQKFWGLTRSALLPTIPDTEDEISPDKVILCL

[
  {
    "molecule": "COc1ccc(CNc2cccc3nc(C)n(C4CCC(=O)NC4=O)c(=O)c23)cc1 (stereo not drawn)",
    "remaining activity at 10 µM (%)": 47.3
  },
  {
    "molecule": "Cc1nc2cccc(NCc3ccc(C#N)cc3)c2c(=O)n1C1CCC(=O)NC1=O (stereo not drawn)",
    "remaining activity at 10 µM (%)": 11.5
  },
  {
    "molecule": "Cc1nc2cccc(NCc3ccccc3Cl)c2c(=O)n1C1CCC(=O)NC1=O (stereo not drawn)",
    "remaining activity at 10 µM (%)": 30.2
  },
  {
    "molecule": "Cc1nc2cccc(NCc3cccc(Cl)c3)c2c(=O)n1C1CCC(=O)NC1=O (stereo not drawn)",
    "remaining activity at 10 µM (%)": 20.2
  },
  {
    "molecule": "Cc1nc2cccc(NCc3c(Cl)cccc3Cl)c2c(=O)n1C1CCC(=O)NC1=O (stereo not drawn)",
    "remaining activity at 10 µM (%)": 21.3
  },
  {
    "molecule": "COc1ccc(CNc2cccc3nc(C)n(C4CCC(=O)NC4=O)c(=O)c23)cc1OC (stereo not drawn)",
    "remaining activity at 10 µM (%)": 0
  },
  {
    "molecule": "COc1ccc(CNc2cccc3nc(C)n(C4CCC(=O)NC4=O)c(=O)c23)c(OC)c1 (stereo not drawn)",
    "remaining activity at 10 µM (%)": 34.8
  },
  {
    "molecule": "Cc1nc2cccc(NCc3cc(Cl)ccc3Cl)c2c(=O)n1C1CCC(=O)NC1=O (stereo not drawn)",
    "remaining activity at 10 µM (%)": 12.1
  },
  {
    "molecule": "Cc1nc2cccc(NCc3cccc(F)c3)c2c(=O)n1C1CCC(=O)NC1=O (stereo not drawn)",
    "remaining activity at 10 µM (%)": 23.8
  }
]
